- assayed.target: T1, his-tagged soluble human OX40 (huOX40-6xhis) (human, UniProt P43489 29-214)
- T1 construct: made in-house; also called Human-OX40-6XHIS; hOX40; not shown: hexahistidine tag
- T1 sequence: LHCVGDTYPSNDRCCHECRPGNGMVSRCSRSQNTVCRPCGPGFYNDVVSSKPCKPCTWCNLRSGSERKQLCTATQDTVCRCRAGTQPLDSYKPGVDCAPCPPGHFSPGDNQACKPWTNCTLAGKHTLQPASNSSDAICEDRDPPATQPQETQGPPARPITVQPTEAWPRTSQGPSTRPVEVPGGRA
- assay.procedure: SPR, mAb captured on anti-human CH1, OX40-6XHIS analyte, 1:1 fit
assay.readout: kon (M⁻¹ s⁻¹)
Answers are plain numbers, in M⁻¹ s⁻¹.

Recorded kon for 18E9 (antibody, V domains shown, human mAb from hybridoma; also called 18E9.G5.H4; 18E9.G5) VH: EVQLVQSGGGLVHPGGSLRLSCAHSGFTFTSSAMHWVRQAPGKGLEWISAIGTGGDTYYADSVKGRFTISRDNAKNSLYLQINSLRAEDMAVYYCARDFYDILTGIFDYWGQGTLVTVSS VL: DIQMTQSPSSVSASVGDRVTITCRASQGISSWLAWYQHKPGKAPKLLIYAASSLQSGVPSRFSGSGSGTDFTLTISSLQPEDFATYYCQQANSFPSTFGQGTKVEIK , please? 68300

Look at each binder and report its kon.
1. 14B6 (antibody, V domains shown, also called 14B6.C5.C8; 14B6.C5) VH: EVQLEQSGAEVKKPGESLKISCKGSGYSFTSNWIGWVRQMPGKGLEWMGFIYPGDSDTRYSPSFQGQVTISADKSISTAYLQWSSLKASDIAMYYCARYGDDWYFDLWGRGTLVTVSS VL: EIVLTQSPATLSLSPGERATLSCRASQSVSSYLAWFQQRPGQAPRLLIYDASNRATGIPARFSGSGSGTDFSLTISSLEPEDFAVYYCQQRGDWPITFGQGTRLEIK
2. 3F4 (antibody, V domains shown, also called 3F4.G11.D2; 3F4.G11) VH: QVQLVQSGAEVKKPGASVKVSCKASGNTFTSYDVNWVRQATGQGLEWMGWMNPNSGNTGYAPKFQGRVTMTRNTSISTAYMELSSLRSEDTAVYYCARIYSSSYNWFDPWGQGTLVTVSS VL: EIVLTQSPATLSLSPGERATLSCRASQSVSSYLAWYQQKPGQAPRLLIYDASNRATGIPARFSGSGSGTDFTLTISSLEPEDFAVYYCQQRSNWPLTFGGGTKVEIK

74000
53100
